# assayed.target: DENV2proHeLa NS2B-NS3 protease (Dengue virus 2 Thailand/16681/84, UniProt P29990)
# Sequence (P29990 1476-2093 limits assumed): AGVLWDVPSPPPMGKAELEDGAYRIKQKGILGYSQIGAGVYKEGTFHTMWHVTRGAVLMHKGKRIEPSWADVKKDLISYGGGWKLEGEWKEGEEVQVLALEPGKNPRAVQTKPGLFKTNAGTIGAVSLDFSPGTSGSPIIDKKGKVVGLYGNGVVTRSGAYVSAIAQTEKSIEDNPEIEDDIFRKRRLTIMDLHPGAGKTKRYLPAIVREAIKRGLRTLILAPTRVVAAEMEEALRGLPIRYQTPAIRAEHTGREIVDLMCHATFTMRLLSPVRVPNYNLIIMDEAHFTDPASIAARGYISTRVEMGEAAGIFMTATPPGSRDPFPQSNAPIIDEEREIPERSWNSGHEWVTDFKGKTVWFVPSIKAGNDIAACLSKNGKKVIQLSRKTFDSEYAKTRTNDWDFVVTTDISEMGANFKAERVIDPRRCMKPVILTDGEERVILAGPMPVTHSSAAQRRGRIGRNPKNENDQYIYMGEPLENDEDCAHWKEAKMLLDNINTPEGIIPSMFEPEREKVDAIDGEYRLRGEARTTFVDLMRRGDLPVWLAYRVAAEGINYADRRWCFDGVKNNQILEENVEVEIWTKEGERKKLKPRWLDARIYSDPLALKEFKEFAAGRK
# Sequence (P29990 1346-1475 partner limits assumed): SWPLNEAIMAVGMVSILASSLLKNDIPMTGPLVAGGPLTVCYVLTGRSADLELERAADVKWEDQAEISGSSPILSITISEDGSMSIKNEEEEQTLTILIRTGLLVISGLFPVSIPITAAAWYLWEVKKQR
# experimental.protocol: cell-based
# Design: species or system DENV2proHeLa (HeLa)
# assay.conditions: read-out: DENV2proHeLa EC50; inhibitor
measured.property: pEC50
A value of pEC50 is the negative decimal logarithm of a concentration given in moles per litre.

Lookup: Kindly state the measured pEC50 obtained for CCCCC(CC)C(=O)N[C@H](C(=O)Nc1cccc(C(N)=O)c1)c1ccc(OCc2ccccc2)cc1 (stereo partly shown) with DENV2proHeLa NS2B-NS3 protease (Dengue virus 2 Thailand/16681/84, UniProt P29990).
Found: 4.96
